# SYSTEM: Ubiquitin-activating enzyme e1, putative (Leishmania donovani (strain BPK282A1))
# PROTOCOL_NOTES: Leishmania donovani Ubiquitin Activating Enzyme (LdE1)
# Assay type: functional
# Set-up: scale not given: direction of the effect not stated beside the values
# STATED_CONDITIONS: 30 µM
Measured potencies and affinities stand elsewhere.
OUTCOME_MEASURE: Percent Effect (%)

>>> reported("COc1ccc(CCN2CCc3c(nc(C4CC4)n3C)C2)cc1")
18.2
>>> reported("Cc1cc(C(=O)N2Cc3ccccc3OC3(CCOCC3)C2)nc(N)n1")
17.6
>>> reported("N#CCCN(C(=O)CN1CCCC1c1ccsc1)c1ccccc1F (centres undefined)")
-18.9
>>> reported("CCO[C@@H]1CO[C@@]2(CCCN(Cc3scnc3C)C2)C1")
0
>>> reported("COC(=O)c1cccc(C(=O)N2CCN(c3cccc(C)c3C)CC2)n1")
20.8
>>> reported("CC(C)(O)CN1CCN(C(=O)c2cc3ccccc3c(=O)[nH]2)CC1")
2.63
>>> reported("Cn1cnc(S(=O)(=O)N2CCCC2)c1Cl")
4.17
>>> reported("Cn1cc(CN2CCCn3cnc(COCC4CC4)c3C2)cn1")
8
>>> reported("COC[C@@H]1CC[C@H]2[C@H](CCN2C(=O)c2ccncc2F)O1")
2.7
>>> reported("CN1CCN(C(CNC(=O)CCn2cccn2)c2cccs2)CC1 (centres undefined)")
-2.67
>>> reported("COCCNC(=O)NCc1ccc(OC(C)C)c(F)c1")
10.5
>>> reported("COc1ccc(CN(C)Cc2nc3c(cnn3C)c(=O)[nH]2)cc1OC")
13.9
>>> reported("COc1ccc(CN2CCc3ncnc(OC(C)C)c3CC2)cc1")
10.7
>>> reported("CCc1cc(NC2CCN(S(C)(=O)=O)CC2)n2nc(C)c(C)c2n1")
4.17
>>> reported("O=C(Cc1ccc(F)cc1)N1CCCCC1c1ccn2ccnc2n1 (centres undefined)")
-1.35
>>> reported("Cc1ccc(CN2CCn3c(C(=O)N(C)C)cnc3C2)s1")
10.7
>>> reported("Cc1cccc(CN2C[C@H]3OC(=O)N(CCCN4CCOCC4)[C@H]3C2)n1")
5.33
>>> reported("COc1cc(N2C[C@H]3OCC[C@H]3[C@H](C(=O)NC3CC3)C2)ncn1")
5.48
>>> reported("O=C(c1cc(Cl)c2c(c1)OCO2)N1CCN(c2nccs2)CC1")
11
>>> reported("Cc1cc(NC(=O)C(c2cccc(F)c2)N2CCOCC2)ccn1 (centres undefined)")
10.5
>>> reported("CCN1CCN(C(=O)CCc2c(C)noc2Cl)CC1")
10.5
>>> reported("Cc1cccc(CNC2CCCc3c2cnn3C)c1 (centres undefined)")
-5.41
>>> reported("CC(NC(=O)NCc1cc[nH]n1)c1ccc2c(c1)CCC(=O)N2 (centres undefined)")
13
>>> reported("Cc1nc(C2CCCN2Cc2nnc(C3CC3)o2)no1 (centres undefined)")
2.7

Data provenance is ChEMBL document CHEMBL3988442.
